System: MOLT-4
Measurement Description: Cytotoxicity against human MOLT-4 cells assessed as cell viability at 5 uM by CellTiter-Glo luminescent assay
Format: functional
Condition Set: read-out: Activity
Each entry below carries its recorded viability at 5 µM.
Give the number; % is assumed, so skip it.

CCc1c(C(=O)Nc2cc(/C=C/C(=O)NO)ccc2O)[nH]c(C)c1C(C)=O; 105
CCc1c(C(=O)Nc2cc(/C=C/C(=O)NO)ccc2OC)[nH]c(C)c1C(C)=O; 3.5
Cc1[nH]c(C(=O)Nc2cc(S(=O)(=O)N3CCOCC3)ccc2OCCCCCCCC(=O)NO)c2c1C(=O)CCCC2; 1.7
COC(=O)CCCCCCCOc1ccc(S(=O)(=O)N2CCOCC2)cc1NC(=O)c1c2c(c(C)n1C)C(=O)CCCC2; 68.6
Cc1c2c(c(C(=O)Nc3cc(S(=O)(=O)N4CCOCC4)ccc3OCCCCCCCC(=O)NO)n1C)CCCCC2=O; 115

// "COc1ccc(S(=O)(=O)n2ccc(/C=C/C(=O)NO)c2)cc1NC(=O)c1[nH]c(C)c2c1CCCCC2=O" : viability at 5 µM value = 4

// "CCc1c(C(=O)Nc2cc(S(=O)(=O)Nc3cccc(/C=C/C(=O)NO)c3)ccc2OC)[nH]c(C)c1C(C)=O" : viability at 5 µM value = 106
